# Test system: 889142-216-R-J1-PDC complex spheroid viability
# PROTOCOL DESCRIPTION: Anticancer human tumor 889142-216-R-J1-PDC patient-derived bladder carcinoma cell line growth inhibition [POLQ]
# STATED CONDITIONS: second compound 0.0316 µM; first compound 1 µM; stronger effect = lower value
Examples of molecules with documented viability, T/C follow.
Answer in %, number only, no unit symbol.

Reference set, count: 8
>>> result_number("CC1COCCN1c1cc(-c2ccnn2C)c2ccnc(-c3ccn[nH]3)c2n1 (stereo not given) + Cc1cccc(N(C)C(=O)C2C(O)CCN2c2nc(C)cc(C(F)(F)F)c2C#N)c1")
37.8
>>> result_number("C=CCn1c(=O)c2cnc(Nc3ccc(N4CCN(C)CC4)cc3)nc2n1-c1cccc(C(C)(C)O)n1 + Cc1cccc(N(C)C(=O)C2C(O)CCN2c2nc(C)cc(C(F)(F)F)c2C#N)c1")
55.5
>>> result_number("CCc1cc2c(N3CCc4c(cc(Cn5ccnc5)cc4-c4cn(C)nc4C(F)(F)F)C3=O)ccnc2c(OC)n1 + COC1C(OC(N)=O)C(O)C(Oc2ccc3c(O)c(NC(=O)c4ccc(O)c(CC=C(C)C)c4)c(=O)oc3c2C)OC1(C)C")
95.5
>>> result_number("CCc1cc2c(N3CCc4c(cc(Cn5ccnc5)cc4-c4cn(C)nc4C(F)(F)F)C3=O)cc(C)nc2c(OC)n1 + Cc1cccc(N(C)C(=O)C2C(O)CCN2c2nc(C)cc(C(F)(F)F)c2C#N)c1")
108
>>> result_number("CC1COCCN1c1cc(C2(O)CC3CCC(C2)O3)c2cnn(-c3ccn[nH]3)c2n1 (stereo not given) + Nc1ccc(C#CCN(C(=O)Cc2ncc(C(F)(F)F)cc2C(F)(F)F)c2ccc(F)cc2)nn1")
35.1
>>> result_number("CC1COCCN1c1cc(C2(O)CC3CCC(C2)O3)c2cnn(-c3ccn[nH]3)c2n1 (stereo not given) + COC1C(OC(N)=O)C(O)C(Oc2ccc3c(O)c(NC(=O)c4ccc(O)c(CC=C(C)C)c4)c(=O)oc3c2C)OC1(C)C")
32.7
>>> result_number("C#Cc1c(F)ccc2cc(O)cc(-c3ncc4c(N5CC6CCC(C5)N6)nc(OCC56CCCN5CC(F)C6)nc4c3F)c12 (stereo not given) + Nc1ccc(C#CCN(C(=O)Cc2ncc(C(F)(F)F)cc2C(F)(F)F)c2ccc(F)cc2)nn1")
74.6
>>> result_number("CC1COCCN1c1cc(-c2ccnn2C)c2ccnc(-c3ccn[nH]3)c2n1 (stereo not given) + Nc1ccc(C#CCN(C(=O)Cc2ncc(C(F)(F)F)cc2C(F)(F)F)c2ccc(F)cc2)nn1")
41

# query: viability, T/C of entry COc1cc(C2c3cc4c(cc3C(OC3OC5COC(C)OC5C(O)C3O)C3COC(=O)C23)OCO4)cc(OC)c1O (stereo not given) + COC1C(OC(N)=O)C(O)C(Oc2ccc3c(O)c(NC(=O)c4ccc(O)c(CC=C(C)C)c4)c(=O)oc3c2C)OC1(C)C
57.3

Given the entry O=C(c1cc(Cc2n[nH]c(=O)c3ccccc23)ccc1F)N1CCN(C(=O)C2CC2)CC1 + Nc1ccc(C#CCN(C(=O)Cc2ncc(C(F)(F)F)cc2C(F)(F)F)c2ccc(F)cc2)nn1 , report its measured viability, T/C.
118

* * *

In this section we review reported IC50 values for a set of compounds.
# Tested on: 889142-216-R-J1-PDC complex spheroid viability
# PROTOCOL DESCRIPTION: Anticancer human tumor 889142-216-R-J1-PDC cell line growth inhibition [POLQ];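 also: spheroids exposed to compounds for seven days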
# STATED CONDITIONS: curve of first compound; second compound 0.1 µM
Field: numeric (nM). Do not append units.

>>> result_number("CC1COCCN1c1cc(C2(O)CC3CCC(C2)O3)c2cnn(-c3ccn[nH]3)c2n1 (stereo not drawn) + Nc1ccc(C#CCN(C(=O)Cc2ncc(C(F)(F)F)cc2C(F)(F)F)c2ccc(F)cc2)nn1")
251

Proceed to the following item.
For COc1cccc(OCCCN)c1-c1cc(Nc2cnc(C#N)cn2)n[nH]1 + Nc1ccc(C#CCN(C(=O)Cc2ncc(C(F)(F)F)cc2C(F)(F)F)c2ccc(F)cc2)nn1 , what is its reported IC50?
161

* * *

Consider the following compounds and their measured IC50 readings.
# Test system: 889142-216-R-J1-PDC complex spheroid viability
# PROTOCOL DESCRIPTION: Anticancer human tumor 889142-216-R-J1-PDC cell line growth inhibition [POLQ];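 also: spheroids exposed to compounds for seven days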
# STATED CONDITIONS: curve of first compound; second compound 0.1 µM
# unit: µM | format: bare number

>>> result_number("C#Cc1c(F)ccc2cc(O)cc(-c3ncc4c(N5CC6CCC(C5)N6)nc(OCC56CCCN5CC(F)C6)nc4c3F)c12 (stereo not given) + COC1C(OC(N)=O)C(O)C(Oc2ccc3c(O)c(NC(=O)c4ccc(O)c(CC=C(C)C)c4)c(=O)oc3c2C)OC1(C)C")
9.08

Now for the compound whose IC50 we want.
Query: IC50; subject: CC(C)n1c(=O)n(C)c2cnc3cc(F)c(-c4ccc(OCCCN5CCCCC5)nc4)cc3c21 + COC1C(OC(N)=O)C(O)C(Oc2ccc3c(O)c(NC(=O)c4ccc(O)c(CC=C(C)C)c4)c(=O)oc3c2C)OC1(C)C
6.09

* * *

Listed here: items and their measured viability, T/C.
# System: 889142-216-R-J1-PDC complex spheroid viability
# PROTOCOL DESCRIPTION: Anticancer human tumor 889142-216-R-J1-PDC cell line growth inhibition [POLQ];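 also: spheroids exposed to compounds for seven days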;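 as to viability, T/C: 100% = DMSO vehicle control viability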
# STATED CONDITIONS: second compound 3.16 µM; first compound 10 µM; stronger effect = lower value
API: value field is a number in %; no unit string.

Worked examples follow.
>>> result_number("CC(C)n1c(=O)n(C)c2cnc3cc(F)c(-c4ccc(OCCCN5CCCCC5)nc4)cc3c21 + Cc1cccc(N(C)C(=O)C2C(O)CCN2c2nc(C)cc(C(F)(F)F)c2C#N)c1")
12.7
>>> result_number("CNCc1ccc(-c2[nH]c3cc(F)cc4c3c2CCNC4=O)cc1 + COC1C(OC(N)=O)C(O)C(Oc2ccc3c(O)c(NC(=O)c4ccc(O)c(CC=C(C)C)c4)c(=O)oc3c2C)OC1(C)C")
89.3
>>> result_number("COc1cccc2c1C(=O)c1c(O)c3c(c(O)c1C2=O)CC(O)(C(=O)CO)CC3OC1CC(N)C(O)C(C)O1 (stereo not given) + COC1C(OC(N)=O)C(O)C(Oc2ccc3c(O)c(NC(=O)c4ccc(O)c(CC=C(C)C)c4)c(=O)oc3c2C)OC1(C)C")
0.98
>>> result_number("CCCS(=O)(=O)Nc1ccc(F)c(C(=O)c2c[nH]c3ncc(-c4ccc(Cl)cc4)cc23)c1F + Cc1cccc(N(C)C(=O)C2C(O)CCN2c2nc(C)cc(C(F)(F)F)c2C#N)c1")
44.9
>>> result_number("O=C(c1cc(Cc2n[nH]c(=O)c3ccccc23)ccc1F)N1CCN(C(=O)C2CC2)CC1 + Cc1cccc(N(C)C(=O)C2C(O)CCN2c2nc(C)cc(C(F)(F)F)c2C#N)c1")
52.9

Requested field: viability, T/C. Item: CCc1cc2c(N3CCc4c(cc(Cn5ccnc5)cc4-c4cn(C)nc4C(F)(F)F)C3=O)cc(C)nc2c(OC)n1 + Nc1ccc(C#CCN(C(=O)Cc2ncc(C(F)(F)F)cc2C(F)(F)F)c2ccc(F)cc2)nn1
97.3

Which viability, T/C value belongs to O=C(Nc1ccc(O)c(NS(=O)(=O)c2ccc(F)cc2)c1)c1ccc(-c2ccccc2)cc1 + COC1C(OC(N)=O)C(O)C(Oc2ccc3c(O)c(NC(=O)c4ccc(O)c(CC=C(C)C)c4)c(=O)oc3c2C)OC1(C)C ?
73.6

What viability, T/C value was documented for this molecule, CC1COCCN1c1cc(C2(S(C)(=N)=O)CC2)nc(-c2ccnc3[nH]ccc23)n1 (stereo not given) + Cc1cccc(N(C)C(=O)C2C(O)CCN2c2nc(C)cc(C(F)(F)F)c2C#N)c1 ?
41.5

* * *

Reported viability, T/C values follow for various molecules
# Tested on: 889142-216-R-J1-PDC complex spheroid viability
# PROTOCOL DESCRIPTION: Anticancer human tumor 889142-216-R-J1-PDC cell line growth inhibition [POLQ];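 also: spheroids exposed to compounds for seven days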;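 as to viability, T/C: 100% = DMSO vehicle control viability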
# STATED CONDITIONS: second compound 3.16 µM; first compound 0.0316 µM; stronger effect = lower value

>>> result("O=C(Nc1ccc(O)c(NS(=O)(=O)c2ccc(F)cc2)c1)c1ccc(-c2ccccc2)cc1 + Nc1ccc(C#CCN(C(=O)Cc2ncc(C(F)(F)F)cc2C(F)(F)F)c2ccc(F)cc2)nn1")
"105%"
>>> result("C=CCn1c(=O)c2cnc(Nc3ccc(N4CCN(C)CC4)cc3)nc2n1-c1cccc(C(C)(C)O)n1 + Nc1ccc(C#CCN(C(=O)Cc2ncc(C(F)(F)F)cc2C(F)(F)F)c2ccc(F)cc2)nn1")
"98.1%"
>>> result("C=CCn1c(=O)c2cnc(Nc3ccc(N4CCN(C)CC4)cc3)nc2n1-c1cccc(C(C)(C)O)n1 + Cc1cccc(N(C)C(=O)C2C(O)CCN2c2nc(C)cc(C(F)(F)F)c2C#N)c1")
"78.2%"
>>> result("CC1COCCN1c1cc(C2(O)CC3CCC(C2)O3)c2cnn(-c3ccn[nH]3)c2n1 (stereo not given) + COC1C(OC(N)=O)C(O)C(Oc2ccc3c(O)c(NC(=O)c4ccc(O)c(CC=C(C)C)c4)c(=O)oc3c2C)OC1(C)C")
"64.3%"

Next molecule, please.
What viability, T/C appears in the records for this molecule with 889142-216-R-J1-PDC complex spheroid viability? CC1COCCN1c1cc(-c2ccnn2C)c2ccnc(-c3ccn[nH]3)c2n1 (stereo not given) + Cc1cccc(N(C)C(=O)C2C(O)CCN2c2nc(C)cc(C(F)(F)F)c2C#N)c1
76.3%
